System: HepG2 cells
Assay: MTT cytotoxicity assay, HepG2
Assay type: cell-based
Conditions: Homo sapiens, 72 h, mean ± SD of three independent experiments
measured-endpoint: IC50 (µM)
Write the value in µM as a bare number.

As a guide, the following entries are already answered.
CO[C@@H]1C[C@@]2(C)[C@@H](CC[C@]3(C)[C@@H]2CC=C2[C@@H]4[C@@H](C)[C@H](C)CC[C@]4(C(=O)NCc4ccccc4)CC[C@]23C)[C@](C)(C(=O)N(C)C)[C@H]1OC(C)=O [Compound 14j] :: 3.77
CO[C@@H]1C[C@@]2(C)[C@@H](CC[C@]3(C)[C@@H]2CC=C2[C@@H]4[C@@H](C)[C@H](C)CC[C@]4(C(=O)NCc4ccccc4)CC[C@]23C)[C@](C)(C(=O)N2CCN(C)CC2)[C@H]1O [Compound 13k] :: 2.22
CO[C@@H]1C[C@@]2(C)[C@@H](CC[C@]3(C)[C@@H]2CC=C2[C@@H]4[C@@H](C)[C@H](C)CC[C@]4(C(=O)NCc4ccccc4)CC[C@]23C)[C@](C)(C(=O)N2CCN(C)CC2)[C@H]1OC(C)=O [Compound 14k] :: 2.84

Next compound, please.
Form field: reported IC50 of COC(=O)[C@@]1(C)[C@@H]2CC[C@]3(C)[C@H](CC=C4[C@@H]5[C@@H](C)[C@H](C)CC[C@]5(C(=O)NCc5ccccc5)CC[C@]43C)[C@@]2(C)C[C@@H](OC)[C@@H]1OC(C)=O [Compound 10]
1.43
